Every entry's value here was drawn from patent US10583137B2.

Target: DAGLβ (hDAGLβ-FLAG) (Homo sapiens (Human), UniProt Q8NCG7)
Sequence (Q8NCG7 whole entry): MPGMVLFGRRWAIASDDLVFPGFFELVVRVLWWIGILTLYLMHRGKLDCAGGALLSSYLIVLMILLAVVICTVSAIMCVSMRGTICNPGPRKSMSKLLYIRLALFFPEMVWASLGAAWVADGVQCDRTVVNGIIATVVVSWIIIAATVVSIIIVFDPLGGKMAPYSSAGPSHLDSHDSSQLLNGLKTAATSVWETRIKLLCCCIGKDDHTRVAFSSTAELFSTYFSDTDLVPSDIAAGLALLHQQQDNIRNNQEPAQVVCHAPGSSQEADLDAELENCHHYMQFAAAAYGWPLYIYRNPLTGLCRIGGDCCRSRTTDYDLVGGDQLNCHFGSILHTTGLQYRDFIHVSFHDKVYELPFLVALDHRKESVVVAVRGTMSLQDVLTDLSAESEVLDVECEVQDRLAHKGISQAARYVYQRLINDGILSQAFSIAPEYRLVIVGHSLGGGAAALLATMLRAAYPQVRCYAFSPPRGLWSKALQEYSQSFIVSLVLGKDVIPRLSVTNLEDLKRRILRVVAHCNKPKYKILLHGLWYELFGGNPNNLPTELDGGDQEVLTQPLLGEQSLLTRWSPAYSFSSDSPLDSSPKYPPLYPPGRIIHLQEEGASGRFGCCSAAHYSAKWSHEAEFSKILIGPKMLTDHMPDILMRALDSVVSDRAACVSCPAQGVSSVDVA
Test: competitive ABPP, membrane proteome of transfected HEK293T cells
Assay type: biochemical
Settings: read-out: DAGLβ IC50
property: IC50

Past entries and their recorded results:
>>> print(df.to_string())
                                   compound                                 tested_on        data_value
0  COc1cc(OC)c(-c2ccc(-c3cn(C(=O)N4CCCCC4Cc4ccccc4)nn3)cn2)c(OC)c1 (stereo not shown)  DAGLβ (hDAGLβ-FLAG) (Homo sapiens (Human), UniProt Q8NCG7)  2000 to 10000 nM
1  O=C(N(CCc1ccccc1)CC1CC1)n1cc(-c2ccc(OC(F)(F)F)cc2)nn1  DAGLβ (hDAGLβ-FLAG) (Homo sapiens (Human), UniProt Q8NCG7)          ≤ 400 nM
2  COc1cccc(OC)c1-c1ccc(-c2cn(C(=O)N3CCCCC3Cc3ccccc3)nn2)cc1 (stereo not shown)  DAGLβ (hDAGLβ-FLAG) (Homo sapiens (Human), UniProt Q8NCG7)  2000 to 10000 nM
3  CN(C)C(=O)c1cccc(-c2ccc(-c3cn(C(=O)N4CCCCC4Cc4ccccc4)nn3)cc2)c1 (stereo not shown)  DAGLβ (hDAGLβ-FLAG) (Homo sapiens (Human), UniProt Q8NCG7)        > 10000 nM

Field: IC50. Fill in for each record below.
1. COc1cc(OC)c(-c2ccc(-c3cn(C(=O)N4CCCCC4Cc4ccncc4)nn3)cc2)c(OC)c1 (stereo not shown)
2. COc1cc(C)cc(OC)c1-c1ccc(-c2cn(C(=O)N3CCCCC3Cc3ccccc3)nn2)cc1 (stereo not shown)
3. O=C(N(CCc1ccccc1)C1CC1)n1ncc(-c2ccc(OC(F)(F)F)cc2)n1

-- reply
1: 2000 to 10000 nM; 2: 2000 to 10000 nM; 3: 400 to 2000 nM
